- Tested on: HeLa
- assay-comment: Proliferation assay (crystal violet), HeLa
- Type: cell-based
- test-parameters: Homo sapiens, HeLa, 96 h, HeLa cells; 4 days incubation; crystal violet staining; read-out: IC50 inhibition of proliferation, HeLa
Threshold-based label: IC50 under 0.4 µM gives True, IC50 not under 0.4 µM gives False.

Quick check: does Cc1nsc(Nc2cnc(C(F)(F)F)cn2)c1C(=O)Nc1ccc(OCC2CCN(C(=O)OC(C)(C)C)C2)nc1 (stereo not drawn) [Example 109] have IC50 under 0.4 µM?
True

Quick check: does Cc1nsc(Nc2cnc(C(F)(F)F)cn2)c1C(=O)Nc1ccc(OC2CCNCC2)c(F)c1 [Example 431] have IC50 under 0.4 µM?
False

Quick check: does Cc1nsc(Nc2ccc(C#N)cn2)c1C(=O)Nc1ccc(NC2CCCN(C(=O)OC(C)(C)C)C2)nc1 (stereo not drawn) [Example 171] have IC50 under 0.4 µM?
False

Quick check: does Cc1nsc(Nc2cnc(C(F)(F)F)cn2)c1C(=O)Nc1ccc(OC2CCCN(CCC(F)(F)F)C2)nc1 (stereo not drawn) [Example 332] have IC50 under 0.4 µM?
True

Quick check: does Cc1nsc(Nc2cnc3ccccc3n2)c1C(=O)Nc1cccc(C(=O)N(C)CCN(C)C)c1 [Example 58] have IC50 under 0.4 µM?
False

Quick check: does Cc1nsc(Nc2cncc(C(F)(F)F)n2)c1C(=O)Nc1ccc(OCCCNC(=O)OC(C)(C)C)nc1 [Example 190] have IC50 under 0.4 µM?
False

Could you now look at the following compound, please?
Quick check: does Cc1nsc(Nc2cnc3ccccc3n2)c1C(=O)Nc1ccc(C(=O)N2CCN(CC(F)F)CC2)cc1 [Example 157] have IC50 under 0.4 µM?
False

Sourced from patent US20170334899A1
